test system: NCI-H460; assay: In vitro cytotoxicity in the dark; format: cell-based, human; settings: read-out: IC50 NCI-H460 (dark)
assay.metric: pIC50
Quick note: pIC50 values are minus log10 of concentrations in mol/L.

Query string: Request the reported pIC50 associated with N.N.[Cl][Pt][Cl] [Cisplatin]
Result string: 5.40
